- assay overview: In vivo test-2: SJA6017 transdermal patch, transfer to the plasma and ocular tissues
- Design: species or system Wistar/ST rats
- run parameters: male, Wistar/ST, lens, other: transdermal patch applied on the abdominal skin, 30 cm^2 patch; transdermal application, SJA6017 patch 30 cm^2, rat; 12 hours after application; read-out: Intraocular concentration, itemized: Lens
assay readout: concentration at 12 h
Please append the unit to your numeric answer.

Exam item: Please give the measured concentration at 12 h for this compound: CC(C)C[C@@H](C=O)NC(=O)[C@@H](NS(=O)(=O)c1ccc(F)cc1)C(C)C [SJA6017]
Marked response: 1.1 ng/g
